tested on: 1321N1 (human) astrocytic line; test: 1321N1 oxidative stress assay (serum withdrawal, DCF); details: 1321N1
Counter-ions that a name gives are not always drawn.
metric name: Lowest dose with toxicity

| molecule | target or system | test value |
| --- | --- | --- |
| CC(=O)O[C@@H]1CC2C(C)(C)C=CC(=O)[C@]2(C)C2CC[C@@]3(C)[C@H](c4ccoc4)OC(=O)C4OC43[C@@]21C (some centres unmarked) | 1321N1 (human) astrocytic line | none |
| CC(=O)Oc1ccc(O)cc1 | 1321N1 (human) astrocytic line | none |
| Cc1cc(O)c(C)c(O)c1C(=O)O | 1321N1 (human) astrocytic line | none |
| C=C1CC[C@@H]2[C@](C)(CO)[C@H](O)CC[C@@]2(C)[C@@H]1C/C=C1/C(=O)OC[C@H]1O [Andrographolide] | 1321N1 (human) astrocytic line | 10 µM |
| ClC1=C(Cl)C2(Cl)C3C(Cl)C(Cl)CC3C1(Cl)C2(Cl)Cl (centres unmarked) | 1321N1 (human) astrocytic line | none |

List Lowest dose with toxicity for every entry below, keeping the order given.
1. O=C(CC[N+](=O)[O-])OC[C@H]1O[C@@H](O)[C@H](OC(=O)CC[N+](=O)[O-])[C@@H](OC(=O)CC[N+](=O)[O-])[C@@H]1OC(=O)CC[N+](=O)[O-]
2. CC(=O)CCC(=O)O
3. C=CC(C1=CC(=O)C(OC)=CC1=O)c1ccccc1 (centres unmarked)
4. CN1CCc2cccc3c2[C@H]1Cc1ccc(O)c(O)c1-3 [Apomorphine hydrochloride, reference compound]
5. COc1cc(O)c(C)c(O)c1 [2,6-dihydroxy-4-methoxytoluene]

["none", "none", "none", "none", "none"]

// input: 5 molecules below; output: Lowest dose with toxicity for each
1. COc1ccc2c(c1)OC/C(=C/c1ccc(OC)c(OC)c1)C2=O
2. CC1=C2C(=CO[C@H](C)[C@H]2C)C(O)=C(C(=O)O)C1=O
3. CC1(C)C2CC(=O)O[C@@]3(C)C4=CC(=O)O[C@@H](c5ccoc5)[C@]4(C)CCC3[C@@]2(C)C=C[C@H]1O (some centres unmarked)
4. O=C(/C=C/c1ccc(O)cc1)c1ccc(O)cc1O
5. O=C1C=C2C=C[C@@H]3C[C@@]2(O1)[C@H]1CCCCN31

1. none
2. none
3. none
4. none
5. none

Field: Lowest dose with toxicity. Fill in for each record below.
1. COc1cc(O)cc(OC)c1OC [Antiarol]
2. Oc1ccc(O)cc1 [hydroquinone, reference compound]

1. none
2. none

For each of the items listed, what is its Lowest dose with toxicity?
1. O=C(CCBr)N1CCN(C(=O)CCBr)CC1 [Pipobroman, reference compound]
2. CC1=CC(=O)C(C(C)C)=CC1=O

1: 10 µM; 2: none

====

Please provide measured maximal fold induction for the entries that follow.
tested on: NRF2-ARE pathway in the CHO 4× ARE-TK cell line; test: ARE reporter assay in CHO 4×ARE-TK-GFP cell line (GFP induction, EthD1 toxicity); settings: Cricetulus griseus, 24 h, read-out: Average fold GFP induction at maximal response
Where a name gives a salt, the structure may show the parent alone.
Answers are plain numbers.

These recorded examples may help you get a feel for the data.
| molecule | maximal fold induction |
| --- | --- |
| C=C(C)/C=C1/C=CC(=O)C(C)=C1 | 2.04 |
| C=C(C)C(=O)C(=CC(=O)O)OC | 2.64 |
| OC[C@H]1O[C@@H](n2cnc3c(NCc4ccco4)ncnc32)[C@H](O)[C@@H]1O [kinetin riboside] | 1.97 |
| C=C1CC[C@@H]2[C@](C)(CO)[C@H](O)CC[C@@]2(C)[C@@H]1C/C=C1/C(=O)OC[C@H]1O [Andrographolide] | 3.61 |
| S=C=NCc1ccccc1 [Benzyl Isothiocyanate] | 1.81 |
| O=C(/C=C/c1ccc(O)cc1)c1ccc(O)cc1O | 2.58 |
| CC(COc1ccccc1)NC(C)C(O)c1ccc(O)cc1 (centres unmarked) [Isoxsuprine hydrochloride, reference compound] | 1.52 |

The record that follows has no maximal fold induction shown yet.
Lab note: need maximal fold induction with NRF2-ARE pathway in the CHO 4× ARE-TK cell line for entry Oc1ccc(O)cc1 [hydroquinone, reference compound] , please look it up.
2.95
